tested.target: T1, human TNFα (human, UniProt P01375 77-233)
T1 construct: also called TAR1; TNF alpha
T1 sequence (P01375 77-233 limits assumed): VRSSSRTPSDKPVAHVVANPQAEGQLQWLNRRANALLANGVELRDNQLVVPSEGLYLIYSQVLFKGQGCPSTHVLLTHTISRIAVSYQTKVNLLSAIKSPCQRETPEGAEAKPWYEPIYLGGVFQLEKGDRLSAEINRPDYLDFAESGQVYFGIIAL
assay: TNF receptor assay (ELISA): inhibition of TNF binding to plate-bound TNF receptor 1-Fc
// values below are reported IC50
value.kind: IC50

INSERT INTO results (binder, recorded_result) VALUES
  ('TAR1-5-19 5U homodimer (other, also called TAR1-5-19 homodimer with (Gly4Ser)5 linker) DIQMTQSPSSLSASVGDRVTITCRASQSIDSYLHWYQQKPGKAPKLLIYSASELQSGVPSRFSGSGSGTDFTLTISSLQPEDFATYYCQQVVWRPFTFGQGTKVEIKRGGGGSGGGGSGGGGSGGGGSGGGGSDIQMTQSPSSLSASVGDRVTITCRASQSIDSYLHWYQQKPGKAPKLLIYSASELQSGVPSRFSGSGSGTDFTLTISSLQPEDFATYYCQQVVWRPFTFGQGTKVEIKR', '~2 nM'),
  ('TAR1-5-19 cys hinge (other, also called cysteine hinge linker format; hinge dimer) DIQMTQSPSSLSASVGDRVTITCRASQSIDSYLHWYQQKPGKAPKLLIYSASELQSGVPSRFSGSGSGTDFTLTISSLQPEDFATYYCQQVVWRPFTFGQGTKVEIKREPKSGDKTHFCPPCP', '~2 nM'),
  ('TAR1-5-19 7U homodimer (other, also called TAR1-5-19 homodimer with (Gly4Ser)7 linker) DIQMTQSPSSLSASVGDRVTITCRASQSIDSYLHWYQQKPGKAPKLLIYSASELQSGVPSRFSGSGSGTDFTLTISSLQPEDFATYYCQQVVWRPFTFGQGTKVEIKRGGGGSGGGGSGGGGSGGGGSGGGGSGGGGSGGGGSDIQMTQSPSSLSASVGDRVTITCRASQSIDSYLHWYQQKPGKAPKLLIYSASELQSGVPSRFSGSGSGTDFTLTISSLQPEDFATYYCQQVVWRPFTFGQGTKVEIKR', '~10 nM'),
  ('TAR1-5-19 3U homodimer (other, also called TAR1-5-19 homodimer with (Gly4Ser)3 linker) DIQMTQSPSSLSASVGDRVTITCRASQSIDSYLHWYQQKPGKAPKLLIYSASELQSGVPSRFSGSGSGTDFTLTISSLQPEDFATYYCQQVVWRPFTFGQGTKVEIKRGGGGSGGGGSGGGGSDIQMTQSPSSLSASVGDRVTITCRASQSIDSYLHWYQQKPGKAPKLLIYSASELQSGVPSRFSGSGSGTDFTLTISSLQPEDFATYYCQQVVWRPFTFGQGTKVEIKR', '~20 nM');
